As shown below, each of these compounds has a reported pKi value.
Biological target: human plasma kallikrein (Homo sapiens (Human), UniProt P03952)
Sequence (P03952 whole entry, looked up): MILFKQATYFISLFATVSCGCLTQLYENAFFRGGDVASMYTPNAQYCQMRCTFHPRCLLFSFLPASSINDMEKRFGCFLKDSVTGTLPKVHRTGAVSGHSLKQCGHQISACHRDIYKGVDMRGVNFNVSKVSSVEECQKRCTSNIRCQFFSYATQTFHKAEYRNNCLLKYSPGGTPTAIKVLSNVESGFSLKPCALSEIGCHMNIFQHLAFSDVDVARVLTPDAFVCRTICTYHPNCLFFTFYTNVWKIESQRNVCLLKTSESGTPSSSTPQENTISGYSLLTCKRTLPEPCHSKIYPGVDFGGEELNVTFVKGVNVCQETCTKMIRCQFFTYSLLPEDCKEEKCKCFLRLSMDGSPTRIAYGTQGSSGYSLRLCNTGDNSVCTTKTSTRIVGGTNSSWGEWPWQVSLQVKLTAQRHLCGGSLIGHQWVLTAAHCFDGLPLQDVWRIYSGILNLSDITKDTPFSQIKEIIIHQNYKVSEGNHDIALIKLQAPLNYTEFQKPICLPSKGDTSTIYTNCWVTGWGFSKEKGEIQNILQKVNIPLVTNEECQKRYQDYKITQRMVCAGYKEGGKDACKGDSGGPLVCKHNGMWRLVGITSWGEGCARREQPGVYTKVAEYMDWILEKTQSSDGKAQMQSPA
Sequence (P03952 whole entry partner, looked up): as the sequence (P03952 whole entry, looked up) above
Test: Plasma kallikrein activity assay (chromogenic substrate S2302)
Format: biochemical
Conditions: 2 nM kallikrein, 80 μM S2302, 30° C., pH 7.8; Ki by Cheng-Prusoff equation; values given as ranges; read-out: Ki
pKi: −log10 of the molar value.
recorded_metric: pKi

INSERT INTO assay_data (compound, reported_value) VALUES
  ('Nc1nccc2ccc(-n3nc(C(=O)Nc4cc(C(N)(CCC5CC5)c5ccncc5)ccc4F)cc3C(F)(F)F)cc12 (single isomer, unassigned; (+)) [268g]', '7.00 to 7.30'),
  ('CC(=O)NC(CCC1CC1)(c1cccnc1)c1ccc(F)c(NC(=O)c2cc(C(F)(F)F)nn2-c2cccc(CN)c2)c1 (single isomer, unassigned; (-)) [244h]', '7.30 to 10.00'),
  ('Nc1nccc2ccc(-n3nc(C(F)(F)F)cc3C(=O)Nc3cc(C(CCC4CC4)n4ccc(=O)[nH]c4=O)ccc3F)cc12 (stereo not drawn) [269b]', '7.30 to 10.00');

---

Biological target: human plasma kallikrein (Homo sapiens (Human))
Assay: Plasma kallikrein activity assay (chromogenic substrate S2302)
Type: biochemical
Conditions: 2 nM kallikrein, 80 μM S2302, 30° C., pH 7.8; Ki by Cheng-Prusoff equation; values given as ranges; read-out: Ki
As shown below, each of these molecules has a reported Ki value.
recorded_metric: Ki

INSERT INTO assay_data (molecule, recorded_metric, reported_value) VALUES
  ('NCc1cccc(-n2nc(C(F)(F)F)cc2C(=O)Nc2cccc(C(O)(CCC3CC3)c3cccnc3)c2)c1 (single isomer, unassigned; (+)) [47h]', 'Ki', '0.1 to 50 nM'),
  ('CC(C)COC(c1ccccc1)c1cccc(NC(=O)c2cc(C(F)(F)F)nn2-c2cccc(CN)c2)c1 (stereo not shown) [18i]', 'Ki', '50 to 100 nM'),
  ('NCc1cccc(-n2nc(C(F)(F)F)cc2C(=O)Nc2cccc(C(NCC3CC3)c3ccccn3)c2)c1 (stereo not shown) [83c]', 'Ki', '0.1 to 50 nM'),
  ('CN1CCCN(C(CCC2CC2)c2ccc(F)c(NC(=O)c3cc(C(F)(F)F)nn3-c3cccc(CN)c3)c2)CC1 (stereo not shown) [251e]', 'Ki', '50 to 100 nM'),
  ('COc1ccc(C(NCC2CC2)c2cccc(NC(=O)c3cc(C(F)(F)F)nn3-c3cccc(CN)c3)c2)cc1 (stereo not shown) [105g]', 'Ki', '0.1 to 50 nM'),
  ('Cn1cc(C(NCC2CC2)c2cccc(NC(=O)c3cc(C(F)(F)F)nn3-c3cccc(CN)c3)c2)cn1 (stereo not shown) [104f]', 'Ki', '0.1 to 50 nM'),
  ('NCc1cccc(-n2nc(C(F)(F)F)cc2C(=O)Nc2cc(F)cc(C(OCC3CC3)c3ccccc3)c2)c1 (stereo not shown) [80h]', 'Ki', '0.1 to 50 nM');
